// data source = patent US11542255B2

TEST_TARGET: NLRP3 (Homo sapiens, UniProt Q96P20)
Sequence (Q96P20 whole entry): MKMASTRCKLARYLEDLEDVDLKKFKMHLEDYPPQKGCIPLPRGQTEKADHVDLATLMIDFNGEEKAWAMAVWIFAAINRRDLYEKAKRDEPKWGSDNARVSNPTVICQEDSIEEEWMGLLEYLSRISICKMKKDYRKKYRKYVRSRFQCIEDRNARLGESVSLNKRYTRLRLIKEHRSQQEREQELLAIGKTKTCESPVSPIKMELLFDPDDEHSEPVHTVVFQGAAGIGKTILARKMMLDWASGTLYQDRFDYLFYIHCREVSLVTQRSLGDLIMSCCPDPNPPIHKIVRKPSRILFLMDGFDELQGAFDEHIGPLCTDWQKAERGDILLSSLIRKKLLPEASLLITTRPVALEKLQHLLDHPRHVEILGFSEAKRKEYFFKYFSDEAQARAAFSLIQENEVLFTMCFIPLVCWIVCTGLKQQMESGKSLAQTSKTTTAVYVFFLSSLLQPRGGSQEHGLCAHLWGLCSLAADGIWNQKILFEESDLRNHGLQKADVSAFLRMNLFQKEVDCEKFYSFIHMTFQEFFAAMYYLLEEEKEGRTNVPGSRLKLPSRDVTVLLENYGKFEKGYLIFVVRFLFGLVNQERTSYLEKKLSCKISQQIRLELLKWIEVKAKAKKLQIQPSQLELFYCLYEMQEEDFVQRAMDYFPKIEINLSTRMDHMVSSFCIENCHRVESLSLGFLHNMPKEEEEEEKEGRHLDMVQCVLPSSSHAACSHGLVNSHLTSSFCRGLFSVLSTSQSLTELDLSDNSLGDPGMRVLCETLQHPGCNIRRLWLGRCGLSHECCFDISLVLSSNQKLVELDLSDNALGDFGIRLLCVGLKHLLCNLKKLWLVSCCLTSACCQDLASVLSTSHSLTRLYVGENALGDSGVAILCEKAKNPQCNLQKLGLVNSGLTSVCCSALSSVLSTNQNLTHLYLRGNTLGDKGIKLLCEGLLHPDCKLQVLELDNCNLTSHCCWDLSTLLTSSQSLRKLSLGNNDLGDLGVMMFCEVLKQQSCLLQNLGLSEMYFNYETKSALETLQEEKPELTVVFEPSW
ASSAY_TEXT: Human whole blood IL1β release assay (LPS + nigericin, AlphaLisa IL-1β)
Type: cell-based
Design: Human whole blood in Li-heparin tubes was obtained from healthy donors from a volunteer donor panel; from tissue; host or cells: human whole blood from healthy donors
MEASUREMENT_PARAMETERS: NLRP3 inhibitory activity, 1 μg/ml LPS, 10 μM nigericin, IL-1β release, read-out: HWB IC50
pIC50: −log10 of the molar value. Counter-ions that a name gives are not always drawn.
PROPERTY_MEASURED: pIC50

Reported pIC50 for CC(C)n1nc(S(=O)(=O)NC(=O)Nc2c3c(cc4c2CCC4)CCC3)cc1C1(N(C)C)CC1 [Example 32] : what is it? 6.10 to 6.40

Item: CC(C)c1cc(F)cc(-c2cncnc2)c1NC(=O)NS(=O)(=O)c1cc(C(=O)N(C)C)n(C)n1 [Example 135, sodium Salt] > 6.40

Item: CN(C)C1(c2cc(S(=O)(=O)NC(=O)Nc3c4c(cc5c3CCC5)CCC4)nn2C)CC1 [Example 58, Sodium Salt] 5.80 to 6.10

Item: CN1CC(O)(c2cc(S(=O)(=O)NC(=O)Nc3c4c(cc5c3CCC5)CCC4)nn2C)C1 [Example 75] 5.80 to 6.10

Item: CC(C)c1cc(F)cc(-c2cccnc2)c1NC(=O)NS(=O)(=O)c1cc(CN(C)C)n(C)n1 [Example 41] > 6.40

Item: Cn1nc(S(=O)(=O)NC(=O)Nc2c3c(cc4c2CCC4)CCC3)cc1CN1CC(F)C1 [Example 80] 5.49 to 5.80

# next molecule below
Reported pIC50 for CCn1nc(S(=O)(=O)NC(=O)Nc2c3c(cc4c2OCC4)CCC3)cc1CN(C)C [Example 185] : what is it? 5.49 to 5.80

* * *

ASSAY_TEXT: PK protocol, intravenous administration
Format: in vivo, male Sprague Dawley rats
MEASUREMENT_PARAMETERS: male, Sprague Dawley, rat, plasma, dose (mg/kg)
Where a name gives a salt, the structure may show the parent alone.
PROPERTY_MEASURED: clearance (mL/min/kg)

Reported clearance for CCC(c1cc(S(=O)(=O)NC(=O)Nc2c3c(cc4c2CCC4)CCC3)nn1C(C)C)N(C)C (stereo not drawn) : what is it? 4.2

Item: CCC(c1cc(S(=O)(=O)NC(=O)Nc2c3c(cc4c2CCC4)CCC3)nn1C)N(C)C (single isomer, unassigned; enantiomer 2) 8.5

Item: CCn1nc(S(=O)(=O)NC(=O)Nc2c3c(cc4c2CCC4)CCC3)cc1CN1CCC1 2.7

Item: CC(C)c1cc(F)cc(C(C)C)c1NC(=O)NS(=O)(=O)c1cc(CN2CCC2)n(C)n1 [Example 88, Sodium Salt] 11.2

Item: CCn1nc(S(=O)(=O)NC(=O)Nc2c3c(cc4c2CCC4)CCC3)cc1CN(C)C 3.5

(I) CC(c1cc(S(=O)(=O)NC(=O)Nc2c3c(cc4c2CCC4)CCC3)nn1C1CC1)N1CCC1 (stereo not drawn)
(II) O=C(Nc1c2c(cc3c1CCC3)CCC2)NS(=O)(=O)c1cc(CN2CCC2)n(C2CC2)n1
(III) CN(C)CCn1nc(S(=O)(=O)NC(=O)Nc2c3c(cc4c2CCC4)CCC3)cc1C(C)(C)O
Sort ascending by clearance. Record the ranking as a list of labels in the requested order. II, III, I
